Test system: OVCAR-5 ovarian
protocolDescription: NCI-60 one-dose screen, 48 h (100 = growth as untreated, 0 = no growth, -100 = all killed)
runConditions: 10 µM unless noted
About 83,000 compounds went through this panel and 20% of them were active in at least one assay; those are over-represented in the sample as a whole.

compound: COc1cc2nc(Cl)nc(Nc3cccc(C(=O)/C=C/c4ccc(F)cc4)c3)c2cc1OC
unitSpec: %
growth: 68.2

compound: O=C(O)c1cccc2c1Cc1cc([N+](=O)[O-])ccc1-2
unitSpec: %
growth: 106

compound: C=C1C(=O)O[C@H]2[C@H]1CC/C(COC(=O)NCCc1c[nH]c3ccccc13)=C\CC[C@@]1(C)O[C@@H]21
unitSpec: %
growth: 56.6

compound: Clc1ccc2c(NCCNc3nc(-c4ccccc4)cc(-c4ccccc4)n3)ccnc2c1
unitSpec: %
growth: -79.7

compound: Cn1c(=O)c2c(ncn2CC(=O)Nc2ccc(S(N)(=O)=O)cc2)n(C)c1=O
unitSpec: %
growth: 105

compound: COc1ccc2c(c1)c(-c1nc(-c3cn(C)c4ncccc34)cs1)cn2CCCN1CCCCC1
unitSpec: %
growth: 85.3

compound: OCC12CCCC(CO)(COC1)C2O (stereo not drawn)
unitSpec: %
growth: 106

compound: COc1cccc(NC(=O)c2sc3nc4c(cc3c2N)C(=O)CCC4)c1
unitSpec: %
growth: 50

compound: CC(=O)NC1=C(C#N)C(c2ccccc2Cl)c2c(ccc3ccccc23)O1 (stereo not drawn)
unitSpec: %
growth: 86.3

compound: COc1ccccc1CNc1nc(N)nc2[nH]c3ccc(O)cc3c12
unitSpec: %
growth: 76.4

compound: CCCCC[C@H]1C/C=C2/C(=O)C=C[C@@H]2C/C=C\CCCC(=O)O[C@@H](CCCCC)C/C=C2/C(=O)C=C[C@@H]2C/C=C\CCCC(=O)O1
unitSpec: %
growth: -68.2

compound: COC(=O)c1cc(=O)nc(N/N=C/c2ccc(C)cc2)s1
unitSpec: %
growth: 101

compound: Cc1cc2nc3c4cc(N)ccc4n(CCN(C)C)c3nc2cc1C
unitSpec: %
growth: 18.5

compound: COc1ccc2c(c1)c1nc3cc(C)c(C)cc3nc1n2CCN(C)C
unitSpec: %
growth: -2.58

compound: COc1ccc(-c2n/c(=C\c3c(O)[nH]c4ccc(OC)cc34)cc3c2=Nc2ccccc2-3)cc1
unitSpec: %
growth: 135

compound: CC1(C)C=CC[C@]2(C)[C@H]3CC[C@@H]4[C@H]5[C@H](C(=O)/C=C/c6cccnc6)CC[C@]5(CO)CC[C@@]4(C)[C@]3(C)CC[C@@H]12
unitSpec: %
growth: -74.3

compound: Oc1ccc(CCC2CCCC(CCc3ccc(OCCF)cc3)N2)cc1 (stereo not drawn)
unitSpec: %
growth: 89.4

compound: COc1cc(/C=N/NC(=S)NNC(=S)NC2CCCCC2)cc(OC)c1OC
unitSpec: %
growth: 106

compound: CC(C)/C=C/CC[C@](C)(O)[C@H]1CC[C@]2(C)[C@@H]1CC[C@@H]1[C@@]3(C)C/C(=C/c4cccc(C(F)(F)F)c4)C(=O)C(C)(C)[C@@H]3CC[C@]12C
unitSpec: %
growth: 107

compound: Oc1ccccc1/C=N\NC(=S)Nc1ccc(F)cc1
unitSpec: %
growth: 55

compound: C#CCN=C[C@]12CC[C@@H](C(=C)C)[C@@H]1[C@H]1CC[C@@H]3[C@@]4(C)CCC(=O)C(C)(C)[C@@H]4CC[C@@]3(C)[C@]1(C)CC2
unitSpec: %
growth: 115

compound: O=C1/C(=C\c2ccco2)SC(=S)N1CCc1ccc(O)cc1
unitSpec: %
growth: 103

compound: C=C(C)[C@@H]1CC[C@]2(C=NCCCNCCCCNCCCN)CC[C@]3(C)[C@H](CC[C@@H]4[C@@]5(C)CCCNC(C)(C)[C@@H]5CC[C@]43C)[C@@H]12
unitSpec: %
growth: 112

compound: N#C/C(=C\c1ccc(-c2ccc(F)cc2)o1)c1nc(-c2ccco2)cs1
unitSpec: %
growth: 65.1

compound: CCCCCCCCNc1cccc2c1C(=O)c1ccccc1C2=O
unitSpec: %
growth: 105

compound: CN1CCN(c2nc(-c3cccc4ccccc34)nc3sc4c(c23)CCCCCC4)CC1
unitSpec: %
growth: 90.2

compound: c1csc(-c2nc(-c3cc4ccccc4c(N4CCOCC4)n3)cs2)c1
unitSpec: %
growth: 124

compound: COc1cccc(-c2nn(-c3ccccc3)cc2-c2ccnc(NCCCNS(=O)(=O)c3ccc(Br)cc3)c2)c1
unitSpec: %
growth: 88.2

compound: [B-][N+](CC)(CC)c1ccccc1
unitSpec: %
growth: 86.9

compound: Cc1cc(N2CCOCC2)nc(N(CCCNc2ccnc3cc(Cl)ccc23)Cc2ccco2)n1
unitSpec: %
growth: 38.9

compound: COc1ccc(-c2cc(-c3c(C)oc4cc5occc5c(OC)c4c3=O)nc(N)c2C#N)cc1OC
unitSpec: %
growth: 92.9

compound: O=C1c2ccccc2NC(c2cn(-c3ccccc3)nc2-c2cccs2)N1Cc1ccccc1 (stereo not drawn)
unitSpec: %
growth: 90

compound: N#Cc1c(-c2ccco2)nc2c(c(-c3ccccc3)nn2-c2ccccc2)c1-c1ccc(O)cc1
unitSpec: %
growth: 93.4

compound: COc1ccc(-c2cc(-c3cccs3)n(N=O)c(=O)c2C#N)cc1
unitSpec: %
growth: 94.4

compound: COC(=O)[C@]12CC[C@@H](C)[C@H](C)[C@@H]1C1=CC[C@@H]3[C@@]4(C)C=C(O)C(=O)C(C)=C4CC[C@@]3(C)[C@]1(C)CC2
unitSpec: %
growth: 64.5

compound: CC1=CC(=O)N(c2cccc3c(N4C(=O)C=C(C)C4=O)cccc23)C1=O
unitSpec: %
growth: 109

compound: COc1cc(/C=N/Nc2ncnc3c2c(C)nn3-c2ccc(F)cc2)ccc1O
unitSpec: %
growth: 131

compound: COc1cccc(-c2nn(-c3ccccc3)cc2-c2ccnc(NCCNS(=O)(=O)c3ccc(Cl)cc3)c2)c1
unitSpec: %
growth: 56.2
